Hi there, I'd appreciate the recorded inhibition of growth at 10 µM for every entry that follows.
- Tested on: Hs-578T
- method: Antiproliferative activity against human Hs-578T cells assessed as cell growth inhibition at 10 uM incubated for 48 hrs by SRB assay relative to control
- Format: functional
- setup conditions: read-out: GI
Give bare numbers, in %.

Completed entries (count: 3):
1) Cc1nc2c(cnn2-c2ccccc2)c(=O)n1-c1ccc(NC(=O)c2ccc(F)cc2)cc1
21.3
2) Cc1nc2c(cnn2-c2ccccc2)c(=O)n1-c1ccc(NC(=O)c2ccc([N+](=O)[O-])cc2)cc1
23.1
3) Cc1nc2c(cnn2-c2ccccc2)c(=O)n1-c1ccc(NC(=O)c2ccccc2)cc1
28.9

Record inhibition of growth at 10 µM per entry; entries follow.
1. Cc1nc2c(cnn2-c2ccccc2)c(=O)n1-c1ccc(NC(=O)c2ccc(Cl)cc2)cc1
2. Cc1nc2c(cnn2-c2ccccc2)c(=O)n1-c1ccc(/N=C2\C(=O)Nc3ccccc32)cc1

OUTPUT:
20.1
17.6

I'm hoping you can list inhibition of growth at 10 µM for every compound here, please.
1. Cc1ccc(C(=O)Nc2ccc(-n3c(C)nc4c(cnn4-c4ccccc4)c3=O)cc2)cc1
2. Cc1nc2c(cnn2-c2ccccc2)c(=O)n1-c1ccc(N)cc1

OUTPUT:
15.2
21.4

Reference source: ChEMBL document CHEMBL5356993
